# Tested system: Dual specificity tyrosine-phosphorylation-regulated kinase 1A (Rattus norvegicus, UniProt Q63470)
# Assay type: biochemical, Homo sapiens
Active and inactive are the calls of the source.
Measure: AC50

// query AC50 value for entry `Cc1ccc2nc(NC(=O)CCCC(=O)O)sc2c1`
4.63 µM (active)

Continue with `Oc1ccc(-c2nccc(-c3cccs3)n2)cc1`
6.5 µM (active)

Continue with `N#Cc1c(C(F)(F)F)cc(-c2cccc(Cl)c2)nc1O`
7.04 µM (active)

Continue with `C[C@@H]1O[C@@H](O[C@H]2[C@H](O)[C@@H](O)[C@H](Oc3c(-c4ccc(O)c(O)c4)oc4cc(O)cc(O)c4c3=O)O[C@@H]2CO)[C@H](O)[C@H](O)[C@H]1O`
11.4 µM (active)

----------
# Assay text: blockers of HIV-1 ZM109 envelope-driven cell-cell fusion – HeLa effector, CEM target cells, luciferase, cherry-pick, dose response (AID 652058);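 further: luciferase signal from HIV-1 Env mediated cell-cell fusion of effector and target cells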
# Format: functional, cell-based
The source made the active and inactive calls.
Measure: AC50

// query AC50 value for entry Cc1cc(C(=O)CN2C(=O)c3ccccc3S2(=O)=O)c(C)n1CC1CCCO1 (centres undefined)
1.35 µM (active)

Continue with `Cc1ccc2nc(NC(=O)CCCC(=O)O)sc2c1`
0.62 µM (active)

Continue with `C[C@@]12C(=O)N(Cc3ccc(F)cc3)CC(=O)N1[C@H]1c3cc(Cl)ccc3OC[C@@H]1[C@@H]2c1ccccc1`
8.91 µM (active)

Continue with `Nc1c(Cl)cc2c(c1Oc1ccccc1)C(=O)c1ccccc1C2=O`
14.3 µM (active)

----------
# Tested system: Genome polyprotein (dengue virus type 2, UniProt P29990)
# Assay text: flavivirus cap methylation enzyme inhibition – biochemical, confirmation dose response, primary screen (AID 588689)
# Type: functional
Active and inactive are the calls of the source.
Measure: IC50

// query IC50 value for entry `Nc1scc2c(C(=O)O)nn(-c3ccccc3)c(=O)c12`
45 µM (active)

Continue with `CC(C)c1ccc(S(=O)(=O)/N=C2/C=C(Sc3nc[nH]n3)C(=O)c3ccccc32)cc1`
6.89 µM (active)

Continue with `CCc1ccc(/C=C2\SC(=S)N(CCCC(=O)Nc3ccccc3C(=O)O)C2=O)cc1`
30.8 µM (active)

Continue with CC(C)(C)C1CCc2c(sc(NC(=O)C3CC=CCC3C(=O)O)c2C#N)C1 (stereo unspecified)
39.4 µM (active)

Continue with `CCCn1nc(NS(=O)(=O)c2cccc3nonc23)c2cc3cccc(C)c3nc21`
39.8 µM (active)

Continue with `O=C1C=C(N2CC2)c2ccccc2C1=O`
29.7 µM (active)

----------
# Tested system: Endoribonuclease toxin MazF (Escherichia coli K-12)
# Sequence (P0AE70 whole entry): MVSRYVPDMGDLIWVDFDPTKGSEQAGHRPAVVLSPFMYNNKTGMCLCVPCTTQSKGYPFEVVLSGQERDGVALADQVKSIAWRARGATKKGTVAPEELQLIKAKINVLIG
# Assay text: activation of MazEF endoribonuclease cleavage – biochemical, fluorescence, single-stranded RNA substrate, uHTS hits, dose response (AID 588481)
# Format: functional
Activity calls are given as the source filed them.
Can you tell me EC50 for the items I'm about to list?

// query EC50 value for entry `CC1=Nc2ccccc2/C1=C\c1nc(-c2ccc(F)cc2)oc1O`
> 99 µM (inactive)

Continue with `CCn1c(/C=C/c2c(C)[nH]c3ccccc23)nc2ccccc2c1=O`
> 99 µM (inactive)

Continue with `Cc1ccc(S(=O)(=O)N(CC(=O)N/N=C\c2cccs2)c2cccc3cccnc23)cc1`
> 99 µM (inactive)

Continue with `NNS(=O)(=O)c1ccc(N2CCCC2=O)c([N+](=O)[O-])c1`
82 µM (inactive)

Continue with `Cc1nc2ccc(C(=O)OCc3ccccc3Br)cc2nc1C`
> 99 µM (inactive)

Continue with `Clc1ccc(-c2nnc3sc(-c4ccc(Br)o4)nn23)cc1`
> 99 µM (inactive)
